# system_tested: T1, Lsb3, P43603
# T1 sequence (P43603 385-451, looked up): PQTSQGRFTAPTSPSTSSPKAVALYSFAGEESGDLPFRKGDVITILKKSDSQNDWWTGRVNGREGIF
# test_details: SPOT array
# recorded_conditions: median of control spots 406
Assign labels as follows, please: Yes for SPOT intensity below 1; No for SPOT intensity equal to or exceeding 1.

Task item: Report whether reported SPOT intensity is lower than 1 (strictly) for KRNRLKILLPFLEQS
Reply: No

Task item: Report whether reported SPOT intensity is lower than 1 (strictly) for VQPTAAPATPPRHIS
Reply: No

Task item: Report whether reported SPOT intensity is lower than 1 (strictly) for KLSRGRYGLPLSSRP
Reply: No

Task item: Report whether reported SPOT intensity is lower than 1 (strictly) for VLRFLGFPLPIFEKG
Reply: Yes

Task item: Report whether reported SPOT intensity is lower than 1 (strictly) for SPLGAPPPPPHKDHL
Reply: Yes

Task item: Report whether reported SPOT intensity is lower than 1 (strictly) for PSRRAPLQLPQLVNK
Reply: Yes

Source of measurements: paper PMC2756588
